- ASSAY_METHOD_TEXT: Cytotoxicity against HCV genotype 2a JFH1 infected human Huh7.5 cells expressing GFP-fused NS5A assessed as reduction in cell viability measured 72 hrs post infection by hoechst 33342 staining based confocal microscopy
- Parameters: species or system Huh-7
MEASURED_QUANTITY: CC50 at 72 h (µM)
Supply the numeric figure in µM, leaving out any unit text.

Give a short answer stating reported CC50 at 72 h for COc1cc(C(C(=O)NC2CCCCC2)N(C(=O)Cc2c[nH]c3ccccc23)c2ccc(C(C)C)cc2)cc(OC)c1OC (stereo unspecified) .
22.3

====

- Tested on: Hepatitis C virus
- ASSAY_METHOD_TEXT: Antiviral activity against recombinant HCV genotype 2a JFH1 infected in human […] for 5 hrs measured on day 3 post infection by luciferase reporter gene assay
- Type: functional, organism-based, Hepacivirus hominis
- ASSAY_SETUP: JFH-1, Huh-7
For each record, check the reported EC50: if it is below 9 µM write 1.0, else write 0.0.

These solved cases illustrate the format of a correct answer.
COMPOUND	CATEGORY
COc1ccc(CCC(=O)N(c2ccc(Br)cc2)C(C(=O)NC2CCCCC2)c2ccc([N+](=O)[O-])cc2)cc1 (stereo not drawn)	1.0
COc1ccc(CCC(=O)N(c2ccc(C(C)C)cc2)C(C(=O)NC2CCCCC2)c2ccc(Cl)cc2)cc1 (stereo not drawn)	0.0
CC(C)c1ccc(N(C(=O)c2ccccc2)C(C(=O)NC2CCCCC2)c2ccc(Cl)cc2)cc1 (stereo not drawn)	1.0
COc1ccc(N(C(=O)Cc2c[nH]c3ccccc23)C(C(=O)NC2CCCCC2)c2ccc(F)cc2)cc1 (stereo not drawn)	0.0
COc1ccc(N(C(=O)Cc2c[nH]c3ccccc23)C(C(=O)NC2CCCCC2)c2ccc([N+](=O)[O-])cc2)cc1 (stereo not drawn)	1.0
CCCCCNC(=O)C(c1ccc2c(c1)OCO2)N(C(=O)CCCC)c1ccc(OC)c(OC)c1 (stereo not drawn)	0.0

Note: attention shifts to another entry.
Determine if COc1ccc(C(C(=O)NC2CCCCC2)N(C(=O)Cc2c[nH]c3ccccc23)c2ccccc2)cc1OC (stereo not drawn) shows EC50 strictly lower than 9 µM.
0.0

====

- ASSAY_METHOD_TEXT: Cytotoxicity against mock-infected human Huh7.5 cells assessed as reduction in cell viability incubated for 5 hrs by MTT assay
- Format: cell-based, Huh-7
- ASSAY_SETUP: mock-infected Huh7.5 cells
Values of CC50 at 5 h strictly less than 30 µM map to 1, and values of at least 30 µM map to -1.

Past entries and their recorded results:
COMPOUND	CATEGORY
CCCCCNC(=O)C(c1ccc2c(c1)OCO2)N(C(=O)CCCC)c1ccc(OC)c(OC)c1 (centres undefined)	-1
CC(C)c1ccc(N(C(=O)c2ccccc2)C(C(=O)NC2CCCCC2)c2ccc(Cl)cc2)cc1 (centres undefined)	-1
NC(=O)c1ncn([C@@H]2O[C@H](CO)[C@@H](O)[C@H]2O)n1 [RIBAVIRIN]	-1
COc1ccc(N(C(=O)c2cc(C)ccc2C)C(C(=O)NC2CCCCC2)c2ccc([N+](=O)[O-])cc2)cc1OC (centres undefined)	-1
O=C(NC1CCCCC1)C(c1ccc(Cl)cc1)N(C(=O)Cc1c[nH]c2ccccc12)c1ccccc1 (centres undefined)	1
COc1ccc(N(C(=O)Cc2c[nH]c3ccccc23)C(C(=O)NC2CCCCC2)c2ccc(F)cc2)cc1 (centres undefined)	-1
COc1ccc(CCN(C(=O)c2ccccc2)C(C(=O)NC2CCCCC2)c2ccc([N+](=O)[O-])cc2)cc1OC (centres undefined)	-1
COc1ccccc1N(C(=O)Cc1c[nH]c2ccccc12)C(C(=O)NC1CCCCC1)c1cc(OC)c(OC)c(OC)c1 (centres undefined)	1
COc1cccc(CCN(C(=O)c2ccc(Cl)nc2)C(C(=O)NC2CCCCC2)c2ccc([N+](=O)[O-])cc2)c1 (centres undefined)	-1
COc1ccc([N+](=O)[O-])c(C(=O)N(CCc2ccc(OC)c(OC)c2)C(C(=O)NC2CCCCC2)c2ccc([N+](=O)[O-])cc2)c1 (centres undefined)	-1

Would you kindly verify if CC50 at 5 h of COc1cccc(CCC(=O)N(c2ccc(OC)c(OC)c2)C(C(=O)NC2CCCCC2)c2ccc(O)cc2)c1 (centres undefined) is strictly less than 30 µM?
-1

Consider COc1ccc(N(C(=O)Cc2c[nH]c3ccccc23)C(C(=O)NC2CCCCC2)c2ccc(OC)c(OC)c2OC)cc1OC (centres undefined) . Does its CC50 at 5 h lie strictly below 30 µM?
1

Could you please tell me whether CC50 at 5 h recorded for COc1ccc(N(C(=O)c2cccc(C)c2C)C(C(=O)NC2CCCCC2)c2ccc(O)cc2)cc1OC (centres undefined) is less than 30 µM?
-1

Identify whether the compound COc1ccc(CCC(=O)N(c2ccc(Br)cc2)C(C(=O)NC2CCCCC2)c2ccc([N+](=O)[O-])cc2)cc1 (centres undefined) records CC50 at 5 h below 30 µM.
1
